Assignment: determine reported MIC for the given molecules.
Test system: Vibrio anguillarum
Assay: Antibacterial activity against Vibrio anguillarum ATCC 19019 assessed as growth inhibition
Assay type: functional
// note: answer is a bare numeric in µM

Looking for the measured MIC of `COc1cc(C)cc(Oc2cc(C)cc(O)c2)c1` , can you help? 25.6

Looking for the measured MIC of `CC(=O)Oc1cc(C)cc(Oc2cc(C)cc(O)c2)c1` , can you help? 46

Looking for the measured MIC of `COC(=O)c1c(C)cc(Oc2cc(C)cc(O)c2)cc1O` , can you help? 21.7

Looking for the measured MIC of `CCCCCOc1cc(C)cc(Oc2cc(C)cc(O)c2)c1` , can you help? 10.4

Looking for the measured MIC of `Cc1cc(O)cc(Oc2cc(C)cc(O)c2)c1` , can you help? 100

Looking for the measured MIC of `Cc1cc(O)cc(Oc2cc(C)cc(O)c2O)c1` , can you help? 100

Looking for the measured MIC of `COc1cc(C)cc(Oc2cc(C)cc(OC)c2O)c1O` , can you help? 100

Looking for the measured MIC of `Cc1c(Br)c(O)c(Br)c(Oc2c(Br)c(C)c(Br)c(O)c2Br)c1Br` , can you help? 1.11

Looking for the measured MIC of `O=C(O)c1cn(C2CC2)c2cc(N3CCNCC3)c(F)cc2c1=O` , can you help? 0.0975

Looking for the measured MIC of `COC(=O)c1c(C)c(Br)c(Oc2c(Br)c(C)c(Br)c(O)c2Br)c(Br)c1O` , can you help? 9.23

Looking for the measured MIC of `CCCOc1cc(C)cc(Oc2cc(C)cc(O)c2)c1` , can you help? 23

---

Test system: Vibrio parahaemolyticus
Test: Antibacterial activity against Vibrio parahaemolyticus ATCC 17802 assessed as growth inhibition
Format: functional
Assignment: determine reported MIC for the given molecules.
// note: answer is a bare numeric in µM

Looking for the measured MIC of `CCCCCOc1cc(C)cc(Oc2cc(C)cc(O)c2)c1` , can you help? 10.4

Looking for the measured MIC of `COC(=O)c1c(C)cc(Oc2cc(C)cc(O)c2)cc1O` , can you help? 21.7

Looking for the measured MIC of Cc1cc(O)cc(Oc2cc(C)cc(O)c2O)c1 [CORDYOL C] , can you help? 100

Looking for the measured MIC of Cc1cc(O)cc(Oc2cc(C)cc(O)c2)c1 [DIORCINOL] , can you help? 100

---

Assignment: determine reported MIC for the given compounds.
Test system: Staphylococcus aureus
Assay: Antibacterial activity against Staphylococcus aureus ATCC 27154 assessed as growth inhibition
Assay type: functional

Looking for the measured MIC of Cc1cc(O)cc(Oc2cc(C)cc(O)c2O)c1 [CORDYOL C] , can you help? 100 µM

Looking for the measured MIC of `CCCCCOc1cc(C)cc(Oc2cc(C)cc(OCCCCC)c2)c1` , can you help? > 100 µM

Looking for the measured MIC of O=C(O)c1cn(C2CC2)c2cc(N3CCNCC3)c(F)cc2c1=O [CIPROFLOXACIN] , can you help? 0.78 µM

Looking for the measured MIC of CC1(C)C=Cc2c(ccc3c4c([nH]c23)C(C)(C)[C@@H]2C[C@]35CCCN3C(=O)[C@@]2(C4)NC5=O)O1 [STEPHACIDIN A] , can you help? > 100 µM

Looking for the measured MIC of `COc1cc(C)cc(Oc2cc(C)cc(OC)c2O)c1O` , can you help? 100 µM

Looking for the measured MIC of `CC(=O)Oc1cc(C)cc(Oc2cc(C)cc(OC(C)=O)c2)c1` , can you help? > 100 µM

Looking for the measured MIC of Cc1cc(O)cc(Oc2cc(C)cc(O)c2)c1 [DIORCINOL] , can you help? 54.3 µM

Looking for the measured MIC of `COC(=O)c1c(C)cc(Oc2cc(C)cc(O)c2)cc1O` , can you help? 10.9 µM

Looking for the measured MIC of COc1cc(C)cc(Oc2cc(C)cc(O)c2)c1 [CORDYOL E] , can you help? 51.2 µM

Looking for the measured MIC of `COC(=O)c1c(C)c(Br)c(Oc2c(Br)c(C)c(Br)c(O)c2Br)c(Br)c1O` , can you help? 100 µM

Looking for the measured MIC of `CCCCCOc1cc(C)cc(Oc2cc(C)cc(O)c2)c1` , can you help? 20.8 µM

Looking for the measured MIC of `Cc1cc(O)cc(Oc2cc(C)cc(OC(=O)c3ccccc3)c2)c1` , can you help? > 100 µM

Looking for the measured MIC of `CCCOc1cc(C)cc(Oc2cc(C)cc(O)c2)c1` , can you help? 46 µM

Looking for the measured MIC of `CC(=O)Oc1cc(C)cc(Oc2cc(C)cc(O)c2)c1` , can you help? > 100 µM

Looking for the measured MIC of COc1cc(C)cc(Oc2cc(C)cc(OC)c2OC)c1O [CORDYOL D] , can you help? > 100 µM

Looking for the measured MIC of `Cc1c(Br)c(O)c(Br)c(Oc2c(Br)c(C)c(Br)c(O)c2Br)c1Br` , can you help? 1.11 µM
